Values of IC50 for Human Factor XIIa (Homo sapiens, UniProt P00748), collected from a number of published sources:

Check out these entries, answers already filled in.
• Nc1nccc2c(NCC34CC(Cn5cccn5)(CO3)C4)cccc12 = 10 to 40 µM
• CN1CCC(CCc2cc(CNc3ccc4c(N)nccc4c3)ccn2)CC1 = 0.3 to 1 µM
• CCNC(=O)c1nn(-c2cccc(Cl)c2CO)c2c1CCN(c1ccc3c(c1)C(=O)N(C)CC3)C2=O = 10 to 40 µM
• N#Cc1cnc(OCC23CC(CNc4cccc5c(N)nccc45)(CO2)C3)nc1 = 3 to 10 µM
• Cc1nccc(OCC23CCOC(CNc4cccc5c(N)nccc45)(C2)C3)n1 = 3 to 10 µM

-- ask Tell me IC50 reported for `CN1CCc2ccc(N3CCc4c(C(=O)NCCF)nn(-c5cccc(Cl)c5)c4C3=O)cc2C1=O`
-- reply 0.3 to 1 µM

-- ask Return IC50 for the following compound: `Cc1cnc2ccc(OCC34COC(CNc5ccccc5C#N)(C3)C4)cn12`
-- reply 10 to 40 µM

-- ask Output measured IC50 for this item: `CN1CCc2ccc(N3CCc4c(C(=O)NC5CCC5)nn(-c5cccc(Cl)c5)c4C3=O)cc2C1=O`
-- reply 0.3 to 1 µM

-- ask Supply reported IC50 belonging to this compound: `Cc1cc(CNC(=O)c2nn(-c3cccc(Cl)c3)c3c2CCN(c2ccc4c(c2)C(=O)N(C)CC4)C3=O)nn1C`
-- reply 0.1 to 0.3 µM

-- ask Give the reported value of IC50 for this record: `COc1ccc(CNC(=O)c2nn(-c3cccc(Cl)c3)c3c2CCN(c2cccc(CN4CCCCC4)c2)C3=O)cn1`
-- reply 0.1 to 0.3 µM

###

Here, compounds appear alongside IC50 reported for Human Factor XIIa (Homo sapiens) in the literature.

* CN1CCc2ccc(N3CCc4c(C(=O)NCC5CC5)nn(-c5cccc(Cl)c5)c4C3=O)cc2C1 | 0.3 to 1 µM
* Cn1ccc(OCC23CN(C(=O)Nc4ccccc4F)C(CNc4cccc5c(N)nccc45)(C2)C3)cc1=O | 0.001 to 0.01 µM
* COc1cncc(CNC(=O)c2nn(-c3cccc(Cl)c3)c3c2CCN(c2ccc4c(c2)C(=O)N(C)CC4)C3=O)c1 | 0.1 to 0.3 µM

-- ask Item `Cc1cc(CNC(=O)c2nn(-c3cccc(Cl)c3)c3c(=O)n(-c4ccc5c(c4)C(=O)N(C)CC5)c(C)nc23)n[nH]1` : provide IC50
-- reply 0.1 to 0.3 µM

-- ask Report measured IC50; entry is `CCN1CCC(OCc2ccc(CNc3ccc4c(N)nccc4c3)c(F)c2)CC1`
-- reply 0.1 to 0.3 µM

-- ask Look up IC50 of `O=C(NCc1ccccc1)c1nn(-c2cccc(Cl)c2)c2c1CCN(c1ccc3c(c1)CN(CC1CC1)CC3)C2=O` and report it.
-- reply 0.1 to 0.3 µM

-- ask Supply recorded IC50 for `COCc1nn(-c2cccc(Cl)c2)c2c1CCN(c1ccc3c(c1)CN(C)CC3)C2=O` here.
-- reply 1 to 3 µM

###

A compilation of IC50 values for Human Factor XIIa (Homo sapiens) from the published literature.

As a guide, the following entries are already answered.
* Cc1ccnc(OCC23CCOC(CNc4cccc5c(N)nccc45)(C2)C3)c1 | 1000 to 3000 nM
* Nc1nccc2c(NCC34COC(COc5ccc6nccn6c5)(C3)C4)cccc12 | 100 to 300 nM
* Cc1nc(CNC(=O)c2nn(-c3cccc(Cl)c3)c3c2CCN(c2ccc4c(c2)C(=O)N(C)CC4)C3=O)n[nH]1 | 100 to 300 nM

Now consider a different molecule.
-- ask Write down the reported IC50 (system: Human Factor XIIa (Homo sapiens)) of Nc1ncc(Cl)c2cc(NCc3ccc(N4CCC(CC(F)F)C4)nc3)ccc12 (stereo not shown)
-- reply 10000 to 40000 nM

###

This section presents IC50 values reported for Human Factor XIIa (Homo sapiens, UniProt P00748) in the literature.

-- ask Tell me its IC50 given Nc1nccc2c(NCc3ccc(N4Cc5nccn5CC4CO)nc3)cccc12 (stereo not shown) as the entry.
-- reply 1000 to 3000 nM

-- ask Report IC50, nothing else, for this molecule: `Nc1nccc2c(NCC34CC(COc5ccc6ncc(C(F)(F)F)n6c5)(CO3)C4)cccc12`
-- reply 1000 to 3000 nM

-- ask Dear colleague, please send me the reported IC50 for `O=C(O)CN1CCc2ccc(N3CCc4c(C(=O)NCC5CC5)nn(-c5cccc(Cl)c5)c4C3=O)cc2C1=O` when you can.
-- reply 1000 to 3000 nM

-- ask For the molecule Cc1cc(CNC(=O)c2nn(-c3cccc(Cl)c3)c3c2CCN(c2ccc4c(c2)C(=O)N(CC2CCCO2)CC4)C3=O)nn1C (stereo not shown) , give its reported IC50.
-- reply 100 to 300 nM

###

A compilation of IC50 values for Human Factor XIIa (Homo sapiens, UniProt P00748) from the published literature.

These solved cases illustrate the format of a correct answer.
- CN1CCc2ccc(N3CCc4c(C(=O)NCC5CC5)nn(-c5cccc(Cl)c5)c4C3=O)nc2C1: 300 to 1000 nM
- Cc1cn2c(n1)CC(COc1cc(CNc3cccc4c(N)nccc34)ccn1)CC2 (centres unmarked): 100 to 300 nM
- CN1CCC(COc2cc(CNc3cccc4c(N)nccc34)ccn2)CC1: 100 to 300 nM
- Nc1nccc2c(OCC34CC(C(=O)N5CCn6ccnc6C5)(C3)C4)cccc12: 10000 to 40000 nM

-- ask Find the measured IC50 of `O=C(NCC1CC1)c1nn(-c2cccc(Cl)c2)c2c1CCN(c1cccc(C(=O)N3CCCC3)c1)C2=O` with Human Factor XIIa (Homo sapiens, UniProt P00748) as test system.
-- reply 10000 to 40000 nM

-- ask Report IC50 from Human Factor XIIa (Homo sapiens, UniProt P00748) testing of `Cn1ccc(OCC23CC(CNc4cccc5c(N)nccc45)(CN2C(=O)CCc2ccccn2)C3)cc1=O`
-- reply 300 to 1000 nM

-- ask Provide Human Factor XIIa (Homo sapiens, UniProt P00748) IC50 reading for `FC(F)(F)c1nnc2n1CCN(c1ccc(CNc3ccc4cnccc4c3)cn1)C2` .
-- reply 3000 to 10000 nM

-- ask Fetch value of IC50 on Human Factor XIIa (Homo sapiens, UniProt P00748) for `Cc1cc(CNC(=O)c2nn(-c3cccc(Cl)c3)c3c2CCN(c2ccc4c(c2)C(=O)N(CCF)CC4)C3=O)nn1C` .
-- reply 10 to 100 nM

###

Collected set of IC50 measured with Human Factor XIIa (Homo sapiens) across studies.

Example entries begin here.
- CN1CCC(CNc2ccc(CNc3ccc4cnccc4c3F)cn2)CC1: 3000 to 10000 nM
- Cn1ccnc1CCOCc1ccc(CNc2cccc3c(N)nccc23)c(F)c1: 1000 to 3000 nM
- CC(=O)NCc1nn(-c2cccc(Cl)c2)c2c1CCN(c1ccc3c(c1)C(=O)N(C)CC3)C2=O: 1000 to 3000 nM
- Nc1nccc2c(NCC34CC(COc5ccc6nc(C(F)(F)F)cn6n5)(CO3)C4)cccc12: 3000 to 10000 nM
- Cc1cc(CNC(=O)c2nn(-c3cccc(Cl)c3)c3c2CCN(c2ccc4c(c2)C(=O)N(CCO)[C@H](C)CO4)C3=O)n[nH]1: 300 to 1000 nM

-- ask Specify the recorded IC50 for `CN(C)C(=O)c1cncc(N2CCc3c(C(=O)NCC4CC4)nn(-c4cccc(Cl)c4)c3C2=O)c1` , system: Human Factor XIIa (Homo sapiens).
-- reply 10000 to 40000 nM

-- ask Enter measured IC50, system Human Factor XIIa (Homo sapiens), for the compound shown: `Nc1nccc2c(NCC34CC(NC(=O)c5ccc6nnc(C(F)F)n6c5)(C3)C4)cccc12`
-- reply 10000 to 40000 nM

-- ask GET IC50 | system: Human Factor XIIa (Homo sapiens) | item: `Cc1cnc2ccc(OCC34COC(CNc5cccc6c(N)nccc56)(C3)C4)cn12`
-- reply 10 to 100 nM

-- ask Would you please give the reported IC50 of `Nc1nccc2c(NCC34CC(COc5cccnc5)(CCO3)C4)cccc12` with Human Factor XIIa (Homo sapiens)?
-- reply 3000 to 10000 nM

-- ask Report IC50 from Human Factor XIIa (Homo sapiens) testing of `CN1CCc2ccc(N3CCc4c(C(=O)N[C@H](CO)c5ccccc5)nn(-c5cccc(Cl)c5F)c4C3=O)cc2C1`
-- reply 10 to 100 nM

-- ask Determine reported IC50 for `Cn1ccc(OCC23CNC(CNc4ccc5c(N)nccc5c4)(C2)C3)cc1=O` ; test system: Human Factor XIIa (Homo sapiens).
-- reply 300 to 1000 nM

-- ask Please report IC50 with Human Factor XIIa (Homo sapiens) for item `CCn1c(C)cc(OCC23CCOC(CNc4cccc5c(N)nccc45)(C2)C3)cc1=O` .
-- reply 10 to 100 nM

-- ask Please tell me the measured IC50 for `CN1CCC(COc2cc(CNc3ccc4c(N)nccc4c3)ccn2)CC1` ; system: Human Factor XIIa (Homo sapiens).
-- reply 10 to 100 nM

-- ask # return IC50 for `Cc1cc(N2CCn3c(nnc3C(F)(F)F)C2)ncc1CNc1cccc2c(N)nccc12` , test system: Human Factor XIIa (Homo sapiens)
-- reply 10 to 100 nM

-- ask Write down the reported IC50 (system: Human Factor XIIa (Homo sapiens)) of `Cn1ccc(OCC23CCOC(CNc4cccc5c(N)nccc45)(C2)C3)nc1=O`
-- reply 100 to 300 nM

-- ask GET IC50 | system: Human Factor XIIa (Homo sapiens) | item: Nc1nccc2cc(NCc3ccnc(OCC4CCn5ccnc5C4)c3)ccc12 (stereo not shown)
-- reply 100 to 300 nM

-- ask State the measured IC50 (Human Factor XIIa (Homo sapiens)) of CN1CCc2ccc(N3CCc4c(C(=O)NCC5CCCO5)nn(-c5cccc(Cl)c5)c4C3=O)cc2C1 (stereo not shown)
-- reply 300 to 1000 nM

-- ask // output IC50; input `Nc1nccc2c(NCC34CC(COc5ccnnc5)(CCO3)C4)cccc12` ; system Human Factor XIIa (Homo sapiens)
-- reply 3000 to 10000 nM

-- ask With Human Factor XIIa (Homo sapiens) as the test system, provide measured IC50 for this compound: `Nc1nccc2c(NCC34CC(COc5ccn6ccnc6c5)(CO3)C4)cccc12`
-- reply 10 to 100 nM

-- ask Send back Human Factor XIIa (Homo sapiens) IC50 of CN1CCc2ccc(N3CCc4c(C(=O)NC5CC6CCC5O6)nn(-c5cccc(Cl)c5)c4C3=O)cc2C1 (stereo not shown) only.
-- reply 100 to 300 nM

-- ask Param request: IC50 | system Human Factor XIIa (Homo sapiens) | item `Nc1nccc2c(NCc3ccnc(NCCC(=O)N4CCCC4)c3)cccc12`
-- reply 1000 to 3000 nM

-- ask Provide IC50, tested on Human Factor XIIa (Homo sapiens), for `Cc1cc2c(NCc3ccc(NCC4CCN(C)CC4)nc3)ncnc2[nH]1` .
-- reply 10000 to 40000 nM

-- ask Return reported IC50 for target or system Human Factor XIIa (Homo sapiens), item `O=C(O)c1nn(-c2cccc(Cl)c2)c2c1CCN(c1cccc(CN3CCCCC3)c1)C2=O` .
-- reply 1000 to 3000 nM

-- ask Tell me its IC50 on Human Factor XIIa (Homo sapiens): CCC(C)N1CCc2ccc(N3CCc4c(C(=O)NCC5CC5)nn(-c5cccc(Cl)c5)c4C3=O)cc2C1 (stereo not shown)
-- reply 100 to 300 nM

-- ask State IC50 on Human Factor XIIa (Homo sapiens). Entry: `CN1CCC(CNc2ccc(CNc3ccc4c(N)ncc(Cl)c4c3)cn2)CC1`
-- reply 100 to 300 nM
